Recorded values, source patent US9040523B2.

# System: Aspergillus fumigatus B42928
# assay_method_text: Antifungal activity in vitro (resazurin susceptibility screen), Inf. E
# Format: cell-based
# condition: Aspergillus fumigatus B42928; 27 °C, 48 hours, resa time 17 hours; read-out: Inf. E pIC50 (converted)
What IC50 was measured for each of the following?
Your answer is read as µM, so omit the unit and give the number.

Measured IC50, CC(=O)c1ccc(C2=NCc3c(F)cccc3-n3cccc32)cc1 : 0.501

Measured IC50, CC(=O)c1ccc(C2=NCc3cc(Cl)cc(Cl)c3-n3cccc32)cc1 : 1.58

###

# Tested on: Trichophyton rubrum B68183
# assay_method_text: Antifungal activity in vitro (resazurin susceptibility screen), Inf. C
# Format: cell-based
# condition: Trichophyton rubrum B68183; 27 °C, 7 days, resa time 24 hours
# Method: The standard susceptibility screen was performed in 96-well plates (U-bottom, Greiner Bio-One). […] These serial dilutions (10 n1) were then spotted onto test-plates that could be stored in the dark at 4° C. for a maximum period of 2 weeks. […] The different fungal species/isolates (Table 3a) were cryopreserved and 1/1000 diluted in medium just prior to use. A standard inoculum of 200 μl containing 10^3 colony-forming unit (cfu) was then added to each well. […]
observable: Inf. C pIC50
Provide a numeric answer; units are not to be included.

Measured Inf. C pIC50, Cl.OCCc1ccc(C2NCc3cc(Cl)cc(Cl)c3-n3cccc32)cc1 (stereo not shown) : 4.5

Measured Inf. C pIC50, CC(=O)c1cc(C2NCc3c(Cl)cccc3-n3cccc32)ccc1F.Cl (stereo not shown) : 6.0

Measured Inf. C pIC50, Cl.OCCc1ccc(C2NCc3c(Cl)cccc3-n3cccc32)cc1 (stereo not shown) : 5.1
